Let's look at some compounds and their measured standardised AUC.
System: MES-SA
test-protocol: standardised AUC of viability dose-response curve (72 h) (fraction (0-1)); higher = less growth inhibition (more resistant)
Could you respond with only the numeric value?

Before answering, review these 3 worked examples.
{"compound": "COC(=O)[C@@]1(O)C[C@H]2O[C@]1(C)n1c3ccccc3c3c4c(c5c6ccccc6n2c5c31)C(=O)NC4 [K-252A]", "standardised AUC": 0.631}
{"compound": "CC(C)Oc1ccc(-c2nn([C@@H](C)c3oc4ccc(F)cc4c(=O)c3-c3cccc(F)c3)c3ncnc(N)c23)cc1F [UMBRALISIB]", "standardised AUC": 0.989}
{"compound": "O=C(Nc1ccc(OC(F)(F)Cl)cc1)c1cnc(N2CC[C@@H](O)C2)c(-c2cc[nH]n2)c1 [ASCIMINIB]", "standardised AUC": 0.975}

Please examine the following record next.
// query Suppose we examine the compound CC(C)NC[C@@H](C(=O)N1CCN(c2ncnc3c2[C@H](C)C[C@H]3O)CC1)c1ccc(Cl)cc1 [IPATASERTIB] ; what standardised AUC value has been reported?
// result 0.781

* * *

Listed below: relative viability values for each entry.
System: SW684
test-protocol: relative viability vs DMSO control (72 h) (fraction); higher = more viable cells
test-settings: 1.111 µM
Hey, just send me the number, nothing else.

// query Give relative viability (SW684) of the following molecule: `O=C(Nc1nc2cccc(-c3ccc(CN4CCS(=O)(=O)CC4)cc3)n2n1)C1CC1`
// result 1.18

* * *

Listing of entries alongside the reported standardised AUC.
Tested on: RD
test-protocol: standardised AUC of viability dose-response curve (72 h) (fraction (0-1)); higher = less growth inhibition (more resistant)
Give the figure by itself; no unit, no explanation.

Worked cases, answers included:
{"compound": "CN1CCN(c2ccc(C(=O)Nc3n[nH]c4ccc(Cc5cc(F)cc(F)c5)cc34)c(NC3CCOCC3)c2)CC1 [ENTRECTINIB]", "reported-result": 0.888}
{"compound": "N#CC1(c2ccc(NC(=O)c3cccnc3NCc3ccncc3)cc2)CCCC1 [APATINIB]", "reported-result": 0.996}
{"compound": "CC(C)(O)CNc1nc(Nc2ccnc(C(F)(F)F)c2)nc(-c2cccc(C(F)(F)F)n2)n1 [ENASIDENIB]", "reported-result": 0.984}

// query Give the measured standardised AUC of CN1CC[C@@H](NC(=O)Nc2ccc(C#N)cc2)C[C@@H]1c1nc2ccccc2[nH]1 [GLASDEGIB] .
// result 0.987

* * *

System: RD
test-protocol: relative viability vs DMSO control (72 h) (fraction); higher = more viable cells
test-settings: 3.333 µM
assay-endpoint: relative viability

Known relative viability results, listed for orientation:
{"structure-notation": "CCC(=O)N1CC[C@H](Nc2ncnc3c2CN(c2cnc(OC)c(C(F)(F)F)c2)CC3)C1", "target-under-test": "RD", "relative viability": 1.05}
{"structure-notation": "CN1CC[C@@H](NC(=O)Nc2ccc(C#N)cc2)C[C@@H]1c1nc2ccccc2[nH]1", "target-under-test": "RD", "relative viability": 1}

// query State its relative viability on RD: `O=c1sn(-c2cccc3ccccc23)c(=O)n1Cc1ccccc1`
// result 1.12

// query Request: relative viability, test system RD, entry `Cn1ncnc1[C@H]1c2n[nH]c(=O)c3cc(F)cc(c23)N[C@@H]1c1ccc(F)cc1`
// result 0.586

// query Find the measured relative viability: item `CCc1cnn2c(NCc3ccc[n+]([O-])c3)cc(N3CCCC[C@H]3CCO)nc12` , target or system RD.
// result 0.103

// query RD / relative viability / `CC(C)(O)CNc1nc(Nc2ccnc(C(F)(F)F)c2)nc(-c2cccc(C(F)(F)F)n2)n1` : value?
// result 1.09

// query Missing value: relative viability, RD, entry `N#CC1(c2ccc(NC(=O)c3cccnc3NCc3ccncc3)cc2)CCCC1` . Fill in?
// result 1.09

// query Requested read-out relative viability, target or system RD, entry `CC1(COc2ccc3c(c2)ncn3-c2ccc3cccc(N4CCC(N)CC4)c3n2)COC1`
// result 0.955

* * *

# relative viability annotations
System: MES-SA
test-protocol: relative viability vs DMSO control (72 h) (fraction); higher = more viable cells
test-settings: 0.00017 µM
Answer field: number only, no words.

{"compound": "CN1CCN(c2ccc(C(=O)Nc3n[nH]c4ccc(Cc5cc(F)cc(F)c5)cc34)c(NC3CCOCC3)c2)CC1", "relative viability": 0.942}

// query Need relative viability, item `COC(=O)N[C@@H](C)CNc1nccc(-c2cn(C(C)C)nc2-c2cc(Cl)cc(NS(C)(=O)=O)c2F)n1`
// result 0.98

// query Value lookup for relative viability; key = `CC(C)Oc1ccc(-c2nn([C@@H](C)c3oc4ccc(F)cc4c(=O)c3-c3cccc(F)c3)c3ncnc(N)c23)cc1F`
// result 0.946

// query Which measured relative viability value corresponds to O=C1NC(=O)[C@@H](c2cn3c4c(cccc24)CCC3)[C@@H]1c1c[nH]c2ccccc12 [Tivantinib] ?
// result 0.903

// query Look up relative viability for this compound: `Cn1ncnc1[C@H]1c2n[nH]c(=O)c3cc(F)cc(c23)N[C@@H]1c1ccc(F)cc1`
// result 0.972

* * *

The compounds listed here are annotated with their relative viability.
Test system: KHOS-NP
test-protocol: relative viability vs DMSO control (72 h) (fraction); higher = more viable cells
test-settings: 1.111 µM
Note: the reply should be a number with no unit written.

Some solved entries appear below for comparison.
{"structure-notation": "COC(=O)N[C@@H](C)CNc1nccc(-c2cn(C(C)C)nc2-c2cc(Cl)cc(NS(C)(=O)=O)c2F)n1", "relative viability": 0.851}
{"structure-notation": "COc1cc(Nc2ncc(F)c(Nc3ccc4c(n3)N(COP(=O)(O)O)C(=O)C(C)(C)O4)n2)cc(OC)c1OC", "relative viability": 0.98}
{"structure-notation": "Cn1cc(C2=C(c3cn(C4CCN(Cc5ccccn5)CC4)c4ccccc34)C(=O)NC2=O)c2ccccc21", "relative viability": 1.11}

// query // fetch KHOS-NP relative viability for `CNC(=O)c1nnc(NC(=O)C2CC2)cc1Nc1cccc(-c2ncn(C)n2)c1OC`
// result 1.06

// query Value wanted: relative viability (KHOS-NP) of entry `CC(C)(C)c1nc(-c2cccc(NS(=O)(=O)c3c(F)cccc3F)c2F)c(-c2ccnc(N)n2)s1`
// result 0.743

* * *

Tested on: SK-ES-1
test-protocol: relative viability vs DMSO control (72 h) (fraction); higher = more viable cells
test-settings: 1.111 µM
assay-endpoint: relative viability
Reply briefly: the number, and no unit.

{"structure-notation": "CC1(C)CC=C(c2nc(C3CC(C)(C)OC(C)(C)C3)ccc2NC(=O)c2nc(C#N)c[nH]2)CC1", "relative viability": 0.986}
{"structure-notation": "Cc1cc2cc(Oc3ccnc(Nc4cccc(CS(=O)(=O)NCCN(C)C)c4)n3)ccc2[nH]1", "relative viability": 1}
{"structure-notation": "CCC(=O)N1CC[C@H](Nc2ncnc3c2CN(c2cnc(OC)c(C(F)(F)F)c2)CC3)C1", "relative viability": 0.999}
{"structure-notation": "CCc1cnn2c(NCc3ccc[n+]([O-])c3)cc(N3CCCC[C@H]3CCO)nc12", "relative viability": 0.00557}
{"structure-notation": "COc1cc(OC)c(/C=C/S(=O)(=O)Cc2ccc(OC)c(NCC(=O)O)c2)c(OC)c1", "relative viability": 0.0202}

// query Short answer please: relative viability, SK-ES-1, entry `CC(C)(C)c1nc(-c2cccc(NS(=O)(=O)c3c(F)cccc3F)c2F)c(-c2ccnc(N)n2)s1`
// result 0.368

// query Query the reported relative viability for SK-ES-1; item: `CC#CC(=O)N1CCC[C@H]1c1nc(-c2ccc(C(=O)Nc3ccccn3)cc2)c2c(N)nccn12`
// result 1.01

// query Request - read-out relative viability | tested on SK-ES-1 | molecule `CO[C@H]1C[C@@H]2CC[C@@H](C)[C@@](O)(O2)C(=O)C(=O)N2CCCC[C@H]2C(=O)O[C@H]([C@H](C)C[C@@H]2CC[C@@H](OCCO)[C@H](OC)C2)CC(=O)[C@H](C)/C=C(\C)[C@@H](O)[C@@H](OC)C(=O)[C@H](C)C[C@H](C)/C=C/C=C/C=C/1C`
// result 0.552

// query Lab note: need relative viability with SK-ES-1 for entry `O=c1sn(-c2cccc3ccccc23)c(=O)n1Cc1ccccc1` , please look it up.
// result 1.03

// query Value wanted: relative viability (SK-ES-1) of entry `CC(C)(O)CNc1nc(Nc2ccnc(C(F)(F)F)c2)nc(-c2cccc(C(F)(F)F)n2)n1`
// result 0.921

// query Request body: readout relative viability, system SK-ES-1, query `Cc1cccc(-c2nn3c(c2-c2ccnc4ccc(C(N)=O)cc24)CCC3)n1` . Return the value.
// result 0.974

// query Please state recorded relative viability (tested on SK-ES-1) of `CNC(=O)c1nnc(NC(=O)C2CC2)cc1Nc1cccc(-c2ncn(C)n2)c1OC`
// result 0.968

// query Quick check: relative viability on SK-ES-1, item `Clc1ccc(Nc2nnc(Cc3ccncc3)c3ccccc23)cc1` ?
// result 1.05

This collection of values is drawn from the supplement of paper PMC10883282.
